Each entry below carries its recorded Fold Change vs. Hydrocodone.
# target_under_test: mu opioid receptor (Homo sapiens (Human), UniProt P35372)
# Assay type: binding
# measurement_context: mean IC50 ratio, ↓ = lower affinity

Observe how each entry below is paired with its result.
{"columns": ["molecule", "measurement_kind", "value"],
 "data": [
  ["COCCOCCOCCOCCOCCO[C@H]1CC[C@H]2[C@H]3Cc4ccc(OC)c5c4[C@@]2(CCN3C)[C@H]1O5 [α-6-mPEG5-O-Hydrocodonol]", "Fold Change vs. Hydrocodone", "6.20 ↓"],
  ["COCCOCCOCCOCCOCCOCCOCCOCCOCCO[C@H]1CC[C@H]2[C@H]3Cc4ccc(OC)c5c4[C@@]2(CCN3C)[C@H]1O5 [α-6-mPEG9-O-Hydrocodonol]", "Fold Change vs. Hydrocodone", "16.30 ↓"],
  ["COCCO[C@H]1CC[C@H]2[C@H]3Cc4ccc(OC)c5c4[C@@]2(CCN3C)[C@H]1O5 [α-6-mPEG1-O-Hydrocodonol]", "Fold Change vs. Hydrocodone", "6.03 ↓"],
  ["COCCOCCOCCOCCO[C@H]1CC[C@H]2[C@H]3Cc4ccc(OC)c5c4[C@@]2(CCN3C)[C@H]1O5 [α-6-mPEG4-O-Hydrocodonol]", "Fold Change vs. Hydrocodone", "7.14 ↓"]
]}

Prompt line: State its Fold Change vs. Hydrocodone on mu opioid receptor (Homo sapiens (Human), UniProt P35372): COCCOCCOCCO[C@H]1CC[C@H]2[C@H]3Cc4ccc(OC)c5c4[C@@]2(CCN3C)[C@H]1O5 [α-6-mPEG3-O-Hydrocodonol]
Response line: 5.87 ↓

Prompt line: State its Fold Change vs. Hydrocodone on mu opioid receptor (Homo sapiens (Human), UniProt P35372): COCCOCCOCCOCCOCCOCCOCCO[C@H]1CC[C@H]2[C@H]3Cc4ccc(OC)c5c4[C@@]2(CCN3C)[C@H]1O5 [α-6-mPEG7-O-Hydrocodonol]
Response line: 26.32 ↓
